- protocol: Plasma pharmacokinetics in phase I clinical trial NCT04836195 (oral daily dose)
- Format: in vivo, human
- conditions: human, plasma, oral, 20 mg, plasma; 20 mg; Cycle 1 D15; read-out: t½ (mean, SD) (converted)
recorded_metric: half-life (h)

>>> print(df.to_string())
                                   compound  recorded_metric  readout_value
0  Cc1c(N[S+](=O)(O)c2c(Cl)cc(-c3ccnc(N4CCNCC4)c3)cc2Cl)c(CC(C)C)nn1C [PCLX-001]        half-life            7.4

###

- protocol: Plasma pharmacokinetics in phase I clinical trial NCT04836195 (oral daily dose)
- Format: in vivo, human
- conditions: human, plasma, oral, 140 mg, plasma; 140 mg; Cycle 1 D1; read-out: Cmax (mean, SD)
recorded_metric: Cmax (ng/mL)

>>> print(df.to_string())
                                   compound  recorded_metric  readout_value
0  Cc1c(N[S+](=O)(O)c2c(Cl)cc(-c3ccnc(N4CCNCC4)c3)cc2Cl)c(CC(C)C)nn1C [PCLX-001]             Cmax           1770

###

- protocol: Plasma pharmacokinetics in phase I clinical trial NCT04836195 (oral daily dose)
- Type: in vivo, human
- conditions: human, plasma, oral, 20 mg, plasma; 20 mg; Cycle 1 D1; read-out: AUC0-24 (mean, SD)
- Text: A phase I, multicenter, nonrandomized, open-label study of zelenirstat, entitled “Phase I Trial of PCLX-001 in B-cell Non-Hodgkin Lymphoma and Advanced Solid Malignancies” (reference 6), is being conducted and is registered at clinicaltrials.gov as NCT04836195. […] PCLX-001/zelenirstat plasma concentrations were quantified using a validated ultra-performance liquid chromatography with tandem mass spectrometry detection and analyzed using a nonlinear mixed-effects model.
recorded_metric: AUC(0-t)

                                   compound  readout_value
0  Cc1c(N[S+](=O)(O)c2c(Cl)cc(-c3ccnc(N4CCNCC4)c3)cc2Cl)c(CC(C)C)nn1C [PCLX-001]   1580 ng·h/mL

###

- protocol: Plasma pharmacokinetics in phase I clinical trial NCT04836195 (oral daily dose)
- Type: in vivo, human
- conditions: human, plasma, oral, 40 mg, plasma; 40 mg; Cycle 1 D15; read-out: Tmax (median, range)
recorded_metric: Tmax (h)

                                   compound  recorded_metric  readout_value
0  Cc1c(N[S+](=O)(O)c2c(Cl)cc(-c3ccnc(N4CCNCC4)c3)cc2Cl)c(CC(C)C)nn1C [PCLX-001]             Tmax            2.2

###

- protocol: Plasma pharmacokinetics in phase I clinical trial NCT04836195 (oral daily dose)
- Type: in vivo, human
- conditions: human, plasma, oral, 100 mg, plasma; 100 mg; Cycle 1 D1; read-out: Cmax (mean, SD)
recorded_metric: Cmax (µg/mL)

                         chemical_structure  readout_value
0  Cc1c(N[S+](=O)(O)c2c(Cl)cc(-c3ccnc(N4CCNCC4)c3)cc2Cl)c(CC(C)C)nn1C           2.19

###

- protocol: Plasma pharmacokinetics in phase I clinical trial NCT04836195 (oral daily dose)
- Type: in vivo, human
- conditions: human, plasma, oral, 70 mg, plasma; 70 mg; Cycle 1 D1; read-out: t½ (mean, SD) (converted)
recorded_metric: half-life (h)

>>> df
                                   compound  recorded_metric  readout_value
0  Cc1c(N[S+](=O)(O)c2c(Cl)cc(-c3ccnc(N4CCNCC4)c3)cc2Cl)c(CC(C)C)nn1C [PCLX-001]        half-life            9.5
